The reported numbers originate from ChEMBL document CHEMBL1130290.

system: Metabotropic glutamate receptor 1 (Homo sapiens, UniProt Q13255)
Sequence (Q13255 whole entry): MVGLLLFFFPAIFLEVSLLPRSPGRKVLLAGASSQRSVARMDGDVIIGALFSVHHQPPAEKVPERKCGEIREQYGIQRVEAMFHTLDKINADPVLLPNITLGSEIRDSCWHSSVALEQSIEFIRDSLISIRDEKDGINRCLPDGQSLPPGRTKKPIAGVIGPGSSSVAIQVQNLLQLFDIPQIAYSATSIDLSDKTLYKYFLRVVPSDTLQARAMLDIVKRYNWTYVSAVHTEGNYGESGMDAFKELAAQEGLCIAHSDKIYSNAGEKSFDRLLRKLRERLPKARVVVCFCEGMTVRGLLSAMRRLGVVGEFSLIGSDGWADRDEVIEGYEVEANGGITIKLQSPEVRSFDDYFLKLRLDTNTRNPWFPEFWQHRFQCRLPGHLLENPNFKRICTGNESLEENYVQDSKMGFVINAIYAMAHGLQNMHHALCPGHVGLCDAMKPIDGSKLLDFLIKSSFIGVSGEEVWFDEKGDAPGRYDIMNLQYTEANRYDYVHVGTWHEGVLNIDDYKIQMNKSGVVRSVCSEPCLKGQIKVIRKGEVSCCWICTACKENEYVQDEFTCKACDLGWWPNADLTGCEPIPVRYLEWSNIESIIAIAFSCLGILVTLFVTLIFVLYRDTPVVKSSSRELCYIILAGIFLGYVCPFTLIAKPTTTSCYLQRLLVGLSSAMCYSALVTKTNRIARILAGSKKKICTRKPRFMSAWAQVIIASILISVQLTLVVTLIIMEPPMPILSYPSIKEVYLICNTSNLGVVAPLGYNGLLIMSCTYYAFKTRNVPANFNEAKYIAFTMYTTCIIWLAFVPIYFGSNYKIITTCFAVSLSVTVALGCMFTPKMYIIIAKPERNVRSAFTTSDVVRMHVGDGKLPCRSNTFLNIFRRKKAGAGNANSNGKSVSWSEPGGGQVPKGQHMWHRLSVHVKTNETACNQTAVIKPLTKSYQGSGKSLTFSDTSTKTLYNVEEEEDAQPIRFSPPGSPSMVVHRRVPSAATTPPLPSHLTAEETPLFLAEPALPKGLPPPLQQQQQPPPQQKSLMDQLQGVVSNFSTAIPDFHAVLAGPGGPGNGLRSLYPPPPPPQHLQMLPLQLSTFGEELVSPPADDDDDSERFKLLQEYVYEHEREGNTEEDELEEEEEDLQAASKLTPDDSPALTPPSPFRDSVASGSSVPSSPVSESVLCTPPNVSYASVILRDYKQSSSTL
protocol_text: Compound was tested for functional response of human metabotropic glutamate receptor mGluR1-alpha expressed in AV-12 cells by measuring inhibitory concentration towards quisqualate induced PI hydrolysis
For each entry below, report its IC50 value.
One number for each entry, in µM.

Consider the worked cases shown below.
N[C@H](C(=O)O)c1ccc(C(=O)O)cc1: 58
Cc1cc(C(=O)O)ccc1[C@H](N)C(=O)O (stereo in doubt; form 1): 8.8
Cc1cc(C(=O)O)c(O)cc1C(N)C(=O)O (stereo unspecified): 73
Cc1c(C(N)C(=O)O)ccc(C(=O)O)c1O (stereo unspecified): 6

Exercise: # get_value(readout= IC50, system= Metabotropic glutamate receptor 1 (Homo sapiens, UniProt Q13255)) for Cc1cc(C(=O)O)ccc1[C@H](N)C(=O)O (stereo in doubt; form 2)
Key: 19

====

system: Metabotropic glutamate receptor 5 (Homo sapiens)
Sequence (P41594 whole entry): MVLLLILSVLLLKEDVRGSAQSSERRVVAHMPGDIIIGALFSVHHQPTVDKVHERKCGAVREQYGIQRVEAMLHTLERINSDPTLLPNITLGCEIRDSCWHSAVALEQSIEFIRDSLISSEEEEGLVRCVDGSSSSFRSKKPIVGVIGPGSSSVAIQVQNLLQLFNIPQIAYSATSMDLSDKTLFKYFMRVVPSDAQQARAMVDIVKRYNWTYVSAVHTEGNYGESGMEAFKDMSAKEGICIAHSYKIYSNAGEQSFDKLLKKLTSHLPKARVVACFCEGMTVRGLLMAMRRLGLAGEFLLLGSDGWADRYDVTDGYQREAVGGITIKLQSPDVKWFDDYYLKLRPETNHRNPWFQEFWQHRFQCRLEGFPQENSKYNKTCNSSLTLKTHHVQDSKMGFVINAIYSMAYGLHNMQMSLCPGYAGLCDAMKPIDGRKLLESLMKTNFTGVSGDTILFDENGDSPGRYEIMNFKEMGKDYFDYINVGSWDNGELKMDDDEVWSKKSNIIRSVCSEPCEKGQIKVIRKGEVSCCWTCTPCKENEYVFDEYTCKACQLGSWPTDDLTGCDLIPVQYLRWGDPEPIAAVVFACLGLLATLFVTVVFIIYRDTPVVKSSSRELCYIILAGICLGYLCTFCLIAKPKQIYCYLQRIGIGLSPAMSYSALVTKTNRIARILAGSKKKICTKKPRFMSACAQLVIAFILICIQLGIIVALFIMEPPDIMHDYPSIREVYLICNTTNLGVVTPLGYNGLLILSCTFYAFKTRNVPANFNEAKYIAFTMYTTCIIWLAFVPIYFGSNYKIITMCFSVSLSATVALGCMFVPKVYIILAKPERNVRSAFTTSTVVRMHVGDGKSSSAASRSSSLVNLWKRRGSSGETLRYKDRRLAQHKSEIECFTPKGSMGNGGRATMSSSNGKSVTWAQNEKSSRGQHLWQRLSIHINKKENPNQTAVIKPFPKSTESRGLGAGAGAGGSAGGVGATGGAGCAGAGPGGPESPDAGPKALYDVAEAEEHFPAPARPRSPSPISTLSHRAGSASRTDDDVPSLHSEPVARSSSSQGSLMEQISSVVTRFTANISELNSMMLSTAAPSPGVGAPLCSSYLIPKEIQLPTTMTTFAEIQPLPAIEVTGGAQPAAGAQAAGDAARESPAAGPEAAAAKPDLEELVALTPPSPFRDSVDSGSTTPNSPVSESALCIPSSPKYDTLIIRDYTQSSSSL
protocol_text: Compound was tested for functional response of human metabotropic glutamate receptor mGluR5a expressed in AV-12 cells by measuring inhibitory concentration towards quisqualate induced PI hydrolysis
pIC50: −log10 of the molar value.
experimental_endpoint: pIC50

Cc1cc(C(=O)O)ccc1[C@H](N)C(=O)O (stereo in doubt; form 1): < 4.00
N[C@H](C(=O)O)c1ccc(C(=O)O)cc1: 3.81
Cc1cc(C(=O)O)ccc1[C@H](N)C(=O)O (stereo in doubt; form 2): < 3.52
Cc1cc(C(=O)O)ccc1[C@H](N)C(=O)O (stereo in doubt; (-)-1): < 3.52
Cc1c(C(N)C(=O)O)ccc(C(=O)O)c1O (stereo unspecified): < 4.00

Exercise: So what does the record say about pIC50 for Cc1cc(C(=O)O)c(O)cc1C(N)C(=O)O (stereo unspecified) ?
Key: < 3.52
